- system: Human Vitronectin Receptor (VnR) αvβ3 (Homo sapiens, UniProt P05106+P06756)
- Construct: Human vitronectin receptor was isolated from human placenta using the method of Pytela et al
- Sequence (P06756 31-889 limits assumed): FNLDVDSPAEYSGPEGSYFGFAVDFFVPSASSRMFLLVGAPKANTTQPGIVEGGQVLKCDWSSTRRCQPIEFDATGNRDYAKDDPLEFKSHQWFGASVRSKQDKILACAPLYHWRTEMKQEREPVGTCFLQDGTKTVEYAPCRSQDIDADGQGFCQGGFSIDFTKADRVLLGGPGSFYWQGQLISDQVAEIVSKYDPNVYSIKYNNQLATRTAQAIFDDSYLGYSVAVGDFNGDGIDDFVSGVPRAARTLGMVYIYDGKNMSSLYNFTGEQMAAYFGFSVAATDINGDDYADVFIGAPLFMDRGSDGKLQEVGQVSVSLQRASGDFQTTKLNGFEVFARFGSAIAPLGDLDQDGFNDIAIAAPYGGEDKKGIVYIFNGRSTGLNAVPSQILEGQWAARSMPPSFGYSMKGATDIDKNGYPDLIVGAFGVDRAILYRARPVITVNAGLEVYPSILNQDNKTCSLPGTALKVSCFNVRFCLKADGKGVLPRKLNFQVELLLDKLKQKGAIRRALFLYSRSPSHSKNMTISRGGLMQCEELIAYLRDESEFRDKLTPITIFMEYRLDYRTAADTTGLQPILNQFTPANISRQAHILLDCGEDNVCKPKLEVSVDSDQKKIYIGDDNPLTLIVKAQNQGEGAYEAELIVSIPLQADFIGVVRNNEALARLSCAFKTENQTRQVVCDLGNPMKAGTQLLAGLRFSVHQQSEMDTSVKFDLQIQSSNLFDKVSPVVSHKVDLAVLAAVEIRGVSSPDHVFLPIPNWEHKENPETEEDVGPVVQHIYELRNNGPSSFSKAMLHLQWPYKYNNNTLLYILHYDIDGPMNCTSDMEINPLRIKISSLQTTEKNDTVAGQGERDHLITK
- Sequence (P06756 891-1048 limits assumed): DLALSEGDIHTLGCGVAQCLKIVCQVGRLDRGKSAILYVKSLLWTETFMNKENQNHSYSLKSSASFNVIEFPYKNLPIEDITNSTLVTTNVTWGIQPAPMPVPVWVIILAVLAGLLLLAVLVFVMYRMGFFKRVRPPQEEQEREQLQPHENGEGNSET
- Sequence (P05106 27-788): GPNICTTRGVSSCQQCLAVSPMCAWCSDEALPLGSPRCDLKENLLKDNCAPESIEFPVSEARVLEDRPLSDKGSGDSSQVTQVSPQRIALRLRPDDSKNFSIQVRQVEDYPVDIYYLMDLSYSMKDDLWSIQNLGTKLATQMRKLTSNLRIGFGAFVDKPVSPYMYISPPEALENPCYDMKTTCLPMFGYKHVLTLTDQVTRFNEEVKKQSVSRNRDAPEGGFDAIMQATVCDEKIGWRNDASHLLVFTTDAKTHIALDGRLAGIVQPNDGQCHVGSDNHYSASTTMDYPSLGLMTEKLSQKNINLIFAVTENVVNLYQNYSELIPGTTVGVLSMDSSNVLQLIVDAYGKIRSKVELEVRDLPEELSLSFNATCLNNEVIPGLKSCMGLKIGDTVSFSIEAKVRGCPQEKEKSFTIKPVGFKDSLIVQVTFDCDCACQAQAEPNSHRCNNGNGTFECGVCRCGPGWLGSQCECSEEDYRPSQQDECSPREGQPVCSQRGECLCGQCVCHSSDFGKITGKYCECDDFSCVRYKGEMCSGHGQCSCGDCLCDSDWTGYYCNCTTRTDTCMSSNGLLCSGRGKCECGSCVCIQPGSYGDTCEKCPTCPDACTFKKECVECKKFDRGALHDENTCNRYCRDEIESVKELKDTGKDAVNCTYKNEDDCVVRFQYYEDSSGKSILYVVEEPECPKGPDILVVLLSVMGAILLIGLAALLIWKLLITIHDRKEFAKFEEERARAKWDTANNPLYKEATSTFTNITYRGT
- test.description: K/VnR test: inhibition of the binding of kistrin to human vitronectin receptor (ELISA)
pIC50: −log10 of the molar value.

smiles.data | pIC50
O=C(/C=C/c1ccc(C(=O)NC[C@H](NC(=O)OCc2ccccc2)C(=O)O)s1)NC1=NCCCN1 | < 5.00
